The measured values listed here are drawn from paper PMC8561351.

For each record, write down the corresponding 5 μM inhibition (%).
molecular target: HLA-A0201 (Homo sapiens, UniProt P04439, D140Y/D185E/D98H/E176V/E277Q/G131W/G231S/I119V/I121R/I166T/I218V/L300P/L318F/N151K/N90K/P208A/P217A/Q86G/Q94H/R138H/R169H/T345S); assay: Competitive peptide binding assay, HLA-A0201 transfected HMy2.CIR cells; details: HLA-A0201; 5 μM unlabeled peptide, reference peptide FLPSDK(FITC)FPSV 300 nM, 24 h, 4 °C
Write the value in % as a bare number.

// NMLRIMASL [Epitope R13, RdRp protein 628-636] : 5 μM inhibition (%) value = 8.66

Lab note: measured 5 μM inhibition (%) of LLLDRLNQL [Epitope C1, N protein 222-230] was 0

Memo: QLLFVVEVV [Epitope R15, RdRp protein 468-476] , reported 5 μM inhibition (%): 70.80

What the record says about RLANECAQV [Epitope R14, RdRp protein 654-662] : 5 μM inhibition (%) is 4.50

The reported value for ASVYAWNRK [Epitope D72, S protein 348-356] in terms of 5 μM inhibition (%) is 5.93

5 μM inhibition (%) in this record for FLAFVVFLL [Epitope A1, E protein 20-28] : 3.30

5 μM inhibition (%) for MIAQYTSAL [Epitope D13, S protein 869-877] is 0.70

For record FVFLVLLPLV [Epitope D12, S protein 2-11] the listed 5 μM inhibition (%) is 20.10

Record summary for FVNEFYAYL [Epitope R8, RdRp protein 741-749] : reported 5 μM inhibition (%) = 85.50

Looking up WLTYTGAIKL [Epitope C3, N protein 330-339] , I see its 5 μM inhibition (%) listed as 0

Query RLCAYCCNIV [Epitope A5, E protein 38-47] yields 5 μM inhibition (%) of 9.40
